pKi by entry:
# Experimental target: [Pyruvate dehydrogenase (acetyl-transferring)] kinase isozyme 3, mitochondrial (Homo sapiens, UniProt Q15120)
# Sequence (Q15120 whole entry): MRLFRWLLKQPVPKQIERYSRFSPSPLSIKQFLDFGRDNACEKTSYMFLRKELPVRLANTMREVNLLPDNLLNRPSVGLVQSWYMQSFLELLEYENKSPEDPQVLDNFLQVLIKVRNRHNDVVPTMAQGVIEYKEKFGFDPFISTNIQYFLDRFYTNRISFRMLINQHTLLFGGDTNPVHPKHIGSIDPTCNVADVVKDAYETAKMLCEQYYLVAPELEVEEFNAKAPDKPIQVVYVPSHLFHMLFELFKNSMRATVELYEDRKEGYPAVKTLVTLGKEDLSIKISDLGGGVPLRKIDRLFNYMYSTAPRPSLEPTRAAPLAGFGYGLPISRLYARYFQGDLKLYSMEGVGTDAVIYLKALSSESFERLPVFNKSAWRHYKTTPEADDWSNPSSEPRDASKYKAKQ
When answering, recall that pKi equals minus log10 of the concentration in mol/L, and write that number alone.

Some compounds with known pKi results, for comparison:
>>> measured_number("COC[C@@H]1COCCN1C(=S)SSC(=S)N1CCOC[C@H]1COC")
5.52
>>> measured_number("S=C(SSC(=S)N1CCCOCC1)N1CCCOCC1")
5.11

Field: next compound
[ask] What value of pKi has been recorded for this entry: S=C(SSC(=S)N1CCOCC1)N1CCOCC1
[reply] 5.55

###

# Experimental target: [Pyruvate dehydrogenase (acetyl-transferring)] kinase isozyme 1, mitochondrial (Homo sapiens)
# Sequence (Q15118 whole entry): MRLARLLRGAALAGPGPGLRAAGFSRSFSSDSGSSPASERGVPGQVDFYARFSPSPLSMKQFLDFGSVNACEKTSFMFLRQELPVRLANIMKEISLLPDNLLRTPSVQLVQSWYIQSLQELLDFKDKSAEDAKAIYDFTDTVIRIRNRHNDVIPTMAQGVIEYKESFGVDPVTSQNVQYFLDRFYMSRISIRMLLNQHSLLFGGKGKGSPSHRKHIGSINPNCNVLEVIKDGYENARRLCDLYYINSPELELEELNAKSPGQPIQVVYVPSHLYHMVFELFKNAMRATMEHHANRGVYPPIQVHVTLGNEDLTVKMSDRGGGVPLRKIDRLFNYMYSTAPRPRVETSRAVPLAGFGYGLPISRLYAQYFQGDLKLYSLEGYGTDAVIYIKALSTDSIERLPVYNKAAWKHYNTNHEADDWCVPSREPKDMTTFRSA
Property measured: pKi
When answering, recall that pKi equals minus log10 of the concentration in mol/L, and write that number alone.

>>> measured_number("S=C(SSC(=S)N1CCOc2ccccc21)N1CCOc2ccccc21")
5.48

Field: next molecule
[ask] What value of pKi has been recorded for this entry: OC1CN(C(=S)SSC(=S)N2CC(O)C2)C1
[reply] 6.06
